Data origin: paper PMC6332448

SYSTEM_NAME: VIM-1 (Pseudomonas aeruginosa, UniProt A0A0F7KYQ8)
ASSAY: biochemical
Assay type: biochemical
As shown below, each of these molecules has a reported IC50 value.
Form entry: value (µM) — number only.

Using the record for O=C(O)c1ncccc1NS(=O)(=O)Cc1cc(Cl)cc(Cl)c1 [Compound 43] , report its IC50.
57.2

# IC50 lookup, item O=C(O)c1ncsc1NS(=O)(=O)Cc1ccccc1 [Compound 64]
62.7

Next, consider the following molecule.
I'd like to know its IC50. The molecule in question is N#Cc1cccc(CS(=O)(=O)Nc2scnc2C(=O)O)c1 [Compound 66]
54.2

====

SYSTEM_NAME: VIM-2 (Escherichia coli)
CONDITION_LABEL: tested up to 200 μM
MEASURE: inhibition of VIM-2, in words

Given the compound O=C(O)c1ncccc1NS(=O)(=O)Cc1cc(Cl)cc(Cl)c1 [Compound 43] , what is its reported inhibition of VIM-2, in words?
strong inhibition

Given the entry O=C(O)c1ncccc1NS(=O)(=O)c1ccccc1 [Compound 32] , report its measured inhibition of VIM-2, in words.
strong inhibition

====

SYSTEM_NAME: VIM-1 (Pseudomonas aeruginosa)
ASSAY: biochemical
Assay type: biochemical
pIC50: −log10 of the molar value.
MEASURE: pIC50

What is its pIC50 for VIM-1 (Pseudomonas aeruginosa)? Entry: O=C(O)c1ncccc1-c1ccoc1 [Compound 13]
< 3.70

Quick check: pIC50 on VIM-1 (Pseudomonas aeruginosa), item O=C(O)c1cnccn1 [Compound 9] ?
< 3.70

Form entry - test system: VIM-1 (Pseudomonas aeruginosa); read-out: pIC50; molecule: O=C(O)c1ncccc1NS(=O)(=O)Cc1ccc(Cl)cc1Cl [Compound 71]
4.76

# query: pIC50 | item O=C(O)c1ncccc1-c1ccncc1 [Compound 12] | system: VIM-1 (Pseudomonas aeruginosa)
< 3.70

Which measured pIC50 belongs to O=C(O)c1ncccc1NS(=O)(=O)Cc1ccccc1Cl [Compound 67] , tested on VIM-1 (Pseudomonas aeruginosa)?
4.96

Query the reported pIC50 for VIM-1 (Pseudomonas aeruginosa); item: O=C(O)c1ncsc1NS(=O)(=O)Cc1ccc(Cl)c(Cl)c1 [Compound 70]
4.42

Given the entry O=C(O)c1ncccc1NS(=O)(=O)c1ccccc1 [Compound 32] , what pIC50 was observed with VIM-1 (Pseudomonas aeruginosa)?
< 3.70

Quick check: pIC50 on VIM-1 (Pseudomonas aeruginosa), item O=C(O)c1ncsc1NS(=O)(=O)Cc1ccccc1Cl [Compound 68] ?
5.17

Next:
Requested read-out pIC50, target or system VIM-1 (Pseudomonas aeruginosa), entry O=C(O)c1ncsc1NS(=O)(=O)c1ccncc1 [Compound 77]
3.74

Request: pIC50, test system VIM-1 (Pseudomonas aeruginosa), entry O=C(Nc1cccnc1C(=O)O)c1cocn1 [Compound 18]
< 3.70

Lookup: pIC50 / VIM-1 (Pseudomonas aeruginosa) / O=C(O)c1ncsc1NS(=O)(=O)c1ccccn1 [Compound 75]
< 3.70

// fetch VIM-1 (Pseudomonas aeruginosa) pIC50 for O=C(O)c1ncccc1NS(=O)(=O)Cc1ccc(Cl)c(Cl)c1 [Compound 69]
< 3.70

Request - read-out pIC50 | tested on VIM-1 (Pseudomonas aeruginosa) | molecule O=C(O)c1cccc(-c2ccc(F)c(F)c2)n1 [Compound 16]
< 3.70
